Tested on: Zymoseptoria tritici
assay: Leaf Blotch of Wheat fungicidal activity (SEPTTR)
Format: in vivo
condition details: 72 h, Low Volume Cereal Activity at 121.5 g/Ha, 3 Day Curative, read-out: SEPTTR 3DC (Wheat Leaf Blotch, 3 Day Curative)
Protocol: All fungicides were evaluated using the aforementioned method for their activity vs. all target diseases, unless stated otherwise. Wheat leaf blotch and brown rust activity were also evaluated using track spray applications, in which case the fungicides were formulated as EC formulations, containing 0.1% Trycol 5941 in the spray solutions. […] Percent disease control was calculated using the ratio of disease severity on treated plants relative to untreated plants.
property name: pest or weed control at 121.5 g/ha

INSERT INTO assay_data (mol_smiles, property_name, result) VALUES
  ('COc1ccnc(C(=O)N[C@@H](C)C(=O)O[C@@H](C)[C@H](OCC2CC2)c2ccc(-c3ccccc3)cc2)c1OCOC(C)=O', 'pest or weed control at 121.5 g/ha', '> 80%'),
  ('COc1cc(F)ccc1[C@@H](Oc1ccccc1)[C@H](C)OC(=O)[C@H](C)NC(=O)c1nccc(OC)c1OCOC(C)=O', 'pest or weed control at 121.5 g/ha', '> 80%'),
  ('COc1ccnc(C(=O)N[C@@H](C)C(=O)O[C@@H](C)[C@H](Oc2ccc(F)cc2)c2ccc(C)cc2)c1OCOC(C)=O', 'pest or weed control at 121.5 g/ha', '> 80%'),
  ('COc1ccnc(C(=O)N[C@@H](C)C(=O)O[C@@H](C)[C@H](OCC2CC2)c2cccc(-c3ccccc3)c2)c1OC(C)=O', 'pest or weed control at 121.5 g/ha', '> 80%'),
  ('COc1ccnc(C(=O)N[C@@H](C)C(=O)O[C@@H](C)[C@H](Oc2ccccc2)c2ccc3ccccc3c2)c1OCOC(C)=O', 'pest or weed control at 121.5 g/ha', '> 80%'),
  ('COc1ccnc(C(=O)N[C@@H](C)C(=O)O[C@@H](C)[C@@H](Oc2ccccc2)c2cccnc2)c1OC(C)=O', 'pest or weed control at 121.5 g/ha', '< 80%'),
  ('COc1ccnc(C(=O)N[C@@H](C)C(=O)O[C@@H](C)[C@@H](OCC(C)C)c2ccccc2)c1OC(C)=O', 'pest or weed control at 121.5 g/ha', '< 80%'),
  ('COc1ccnc(C(=O)N[C@@H](C)C(=O)O[C@@H](C)[C@H](Oc2ccccc2)c2ccc(-c3ccccc3)cc2)c1OCOC(C)=O', 'pest or weed control at 121.5 g/ha', '> 80%'),
  ('COc1ccnc(C(=O)N[C@@H](C)C(=O)O[C@@H](C)[C@H](Oc2ccccc2)c2ccc(F)cc2F)c1OCOC(C)=O', 'pest or weed control at 121.5 g/ha', '> 80%'),
  ('COc1ccnc(C(=O)N[C@@H](C)C(=O)O[C@@H](C)[C@@H](Oc2ccc(Cl)cc2Cl)c2ccccc2)c1OC(=O)C(C)C', 'pest or weed control at 121.5 g/ha', '< 80%'),
  ('COc1ccnc(C(=O)N[C@@H](C)C(=O)O[C@@H](C)[C@H](Oc2ccccc2)c2ccc(F)cc2OCC2CC2)c1OC(C)=O', 'pest or weed control at 121.5 g/ha', '> 80%'),
  ('COc1ccnc(C(=O)N[C@@H](C)C(=O)O[C@@H](C)[C@H](Oc2ccccc2)c2cccc(-c3ccccc3)c2)c1OCOC(C)=O', 'pest or weed control at 121.5 g/ha', '> 80%'),
  ('COc1ccnc(C(=O)N[C@@H](C)C(=O)O[C@@H](C)[C@@H](Oc2ccccc2)c2cccs2)c1OC(C)=O', 'pest or weed control at 121.5 g/ha', '< 80%'),
  ('COc1ccnc(C(=O)N[C@@H](C)C(=O)O[C@@H](C)[C@H](Oc2ccccc2)c2ccc(F)cc2)c1OCOC(C)=O', 'pest or weed control at 121.5 g/ha', '> 80%'),
  ('COc1ccnc(C(=O)N[C@@H](C)C(=O)O[C@@H](C)[C@H](Oc2ccccc2)c2ccc(F)cc2Cl)c1OCOC(C)=O', 'pest or weed control at 121.5 g/ha', '> 80%'),
  ('COc1ccccc1[C@@H](Oc1ccccc1)[C@H](C)OC(=O)[C@H](C)NC(=O)c1nccc(OC)c1OCOC(C)=O', 'pest or weed control at 121.5 g/ha', '> 80%'),
  ('CC[C@H](NC(=O)c1nccc(OC)c1OCOC(C)=O)C(=O)O[C@@H](C)[C@H](Oc1cc(F)cc(Cl)c1)c1ccccc1', 'pest or weed control at 121.5 g/ha', '> 80%'),
  ('CCCO[C@@H](c1ccccc1)[C@H](C)OC(=O)[C@H](C)NC(=O)c1nccc(OC)c1OC(C)=O', 'pest or weed control at 121.5 g/ha', '> 80%'),
  ('COc1ccnc(C(=O)N[C@@H](C)C(=O)O[C@@H](C)[C@H](Oc2cc(F)ccc2F)c2ccccc2)c1OC(C)=O', 'pest or weed control at 121.5 g/ha', '< 80%'),
  ('COc1ccnc(C(=O)N[C@@H](C)C(=O)O[C@@H](C)[C@H](Oc2ccccc2)c2ccccc2)c1OCOC(C)=O', 'pest or weed control at 121.5 g/ha', '> 80%'),
  ('COc1cc(F)ccc1[C@@H](OC(=O)C(C)(C)C)[C@H](C)OC(=O)[C@H](C)NC(=O)c1nccc(OC)c1OC(C)=O', 'pest or weed control at 121.5 g/ha', '> 80%'),
  ('COc1ccnc(C(=O)N[C@@H](C)C(=O)O[C@@H](C)[C@H](OCC2CC2)c2ccccc2)c1OC(C)=O', 'pest or weed control at 121.5 g/ha', '> 80%'),
  ('COc1cc(F)ccc1[C@@H](OCC1CC1)[C@H](C)OC(=O)[C@H](C)NC(=O)c1nccc(OC)c1OC(C)=O', 'pest or weed control at 121.5 g/ha', '> 80%'),
  ('COc1ccnc(C(=O)N[C@@H](C)C(=O)O[C@@H](C)[C@H](Oc2ccc(F)cc2)c2ccc(F)cc2)c1OCOC(C)=O', 'pest or weed control at 121.5 g/ha', '> 80%'),
  ('CC[C@H](NC(=O)c1nccc(OC)c1OCOC(C)=O)C(=O)O[C@@H](C)[C@H](Oc1cc(F)ccc1F)c1ccccc1', 'pest or weed control at 121.5 g/ha', '< 0%'),
  ('COc1ccnc(C(=O)N[C@@H](C)C(=O)O[C@@H](C)[C@@H](Oc2ccccc2)c2ccccc2)c1OC(C)=O', 'pest or weed control at 121.5 g/ha', '> 80%');

====

System: Zymoseptoria tritici
assay: Leaf Blotch of Wheat fungicidal activity (SEPTTR)
Type: in vivo
condition details: 24 h, wheat, high volume, 100 ppm, 1 Day Protectant, read-out: SEPTTR 1DP % Control rating
property name: pest or weed control at 100 ppm

INSERT INTO measurements (mol_smiles, test_target, result) VALUES
  ('COc1ccnc(C(=O)N[C@@H](C)C(=O)O[C@@H](C)[C@H](Oc2ccc(Cl)cc2)c2ccccc2)c1O', 'Zymoseptoria tritici', '< 80%'),
  ('COc1ccnc(C(=O)N[C@@H](C)C(=O)O[C@@H](C)[C@H](Oc2ccc(C(F)(F)F)cc2)c2ccccc2)c1O', 'Zymoseptoria tritici', '< 80%'),
  ('COc1ccnc(C(=O)N[C@@H](C)C(=O)O[C@H](C)[C@@H](Oc2ccccc2)c2ccccc2)c1O', 'Zymoseptoria tritici', '< 0%'),
  ('CC[C@H](NC(=O)c1nccc(OC)c1O)C(=O)O[C@@H](C)[C@H](Oc1cc(F)cc(Cl)c1)c1ccccc1', 'Zymoseptoria tritici', '> 80%'),
  ('COc1ccnc(C(=O)N[C@@H](C)C(=O)O[C@@H](C)[C@H](Oc2ccccc2)c2ccc(F)cc2OCC(F)F)c1O', 'Zymoseptoria tritici', '> 80%'),
  ('COc1ccnc(C(=O)N[C@@H](C)C(=O)O[C@@H](C)[C@H](Oc2cc(F)cc(Cl)c2)c2ccccc2)c1O', 'Zymoseptoria tritici', '> 80%'),
  ('COc1ccnc(C(=O)N[C@@H](C)C(=O)O[C@@H](C)[C@H](Oc2ccccc2)c2ccc3ccccc3c2)c1O', 'Zymoseptoria tritici', '> 80%'),
  ('CCCO[C@H](c1ccccc1)[C@H](C)OC(=O)[C@H](C)NC(=O)c1nccc(OC)c1O', 'Zymoseptoria tritici', '> 80%'),
  ('COc1ccnc(C(=O)N[C@@H](C)C(=O)O[C@@H](C)[C@H](Oc2ccccc2)c2ccc(F)cc2C)c1O', 'Zymoseptoria tritici', '> 80%'),
  ('COc1ccnc(C(=O)N[C@@H](C)C(=O)O[C@@H](C)[C@H](Oc2ccccc2)c2ccc(F)cc2)c1O', 'Zymoseptoria tritici', '< 80%'),
  ('COc1ccnc(C(=O)N[C@@H](Cc2ccccc2)C(=O)O[C@@H](C)[C@H](Oc2cccc(F)c2)c2ccccc2)c1O', 'Zymoseptoria tritici', '< 0%'),
  ('CCCO[C@@H](c1ccccc1)[C@H](C)OC(=O)[C@H](C)NC(=O)c1nccc(OC)c1O', 'Zymoseptoria tritici', '< 80%'),
  ('COc1ccnc(C(=O)N[C@@H](C)C(=O)O[C@@H](C)[C@H](Oc2cccc(F)c2)c2ccccc2)c1O', 'Zymoseptoria tritici', '> 80%'),
  ('COc1ccnc(C(=O)N[C@@H](C)C(=O)O[C@@H](C)[C@H](Oc2ccccc2)c2nccs2)c1O', 'Zymoseptoria tritici', '< 80%'),
  ('COc1ccnc(C(=O)N[C@@H](C)C(=O)O[C@@H](C)[C@@H](Oc2ccccc2)c2cccs2)c1O', 'Zymoseptoria tritici', '> 80%'),
  ('COc1ccnc(C(=O)N[C@@H](C)C(=O)O[C@@H](C)[C@H](Oc2ccccc2)c2ccc(F)cc2Oc2ccccc2)c1O', 'Zymoseptoria tritici', '> 80%'),
  ('COc1cc(F)ccc1[C@@H](OCC(F)F)[C@H](C)OC(=O)[C@H](C)NC(=O)c1nccc(OC)c1O', 'Zymoseptoria tritici', '< 80%'),
  ('COc1ccnc(C(=O)N[C@H](C)C(=O)O[C@H](C)[C@@H](Oc2ccccc2)c2ccccc2)c1O', 'Zymoseptoria tritici', '< 0%'),
  ('COc1ccnc(C(=O)N[C@@H](C)C(=O)O[C@@H](C)[C@H](Oc2ccccc2)c2ccccc2)c1O', 'Zymoseptoria tritici', '> 80%'),
  ('COc1ccnc(C(=O)N[C@@H](C)C(=O)O[C@@H](C)[C@H](Oc2ccc(F)cc2)c2ccccc2)c1O', 'Zymoseptoria tritici', '> 80%'),
  ('COc1ccnc(C(=O)N[C@@H](C)C(=O)O[C@@H](C)[C@H](Oc2ccc(C)cc2Cl)c2ccccc2)c1O', 'Zymoseptoria tritici', '> 80%'),
  ('COc1ccnc(C(=O)N[C@@H](C)C(=O)O[C@@H](C)[C@H](Oc2ccccc2)c2cccc3ccccc23)c1O', 'Zymoseptoria tritici', '> 80%'),
  ('CC[C@H](NC(=O)c1nccc(OC)c1O)C(=O)O[C@@H](C)[C@H](Oc1cc(F)ccc1F)c1ccccc1', 'Zymoseptoria tritici', '< 80%'),
  ('COc1cc(F)ccc1[C@@H](Oc1ccc(C)cc1Cl)[C@H](C)OC(=O)[C@H](C)NC(=O)c1nccc(OC)c1O', 'Zymoseptoria tritici', '> 80%'),
  ('COc1ccnc(C(=O)N[C@@H](C)C(=O)O[C@@H](C)[C@H](Oc2ccc(C)cc2)c2ccccc2)c1O', 'Zymoseptoria tritici', '> 80%'),
  ('COc1ccnc(C(=O)N[C@@H](C)C(=O)O[C@@H](C)[C@H](Oc2ccccc2Cl)c2ccccc2)c1O', 'Zymoseptoria tritici', '> 80%'),
  ('COc1ccnc(C(=O)N[C@@H](C)C(=O)O[C@@H](C)[C@H](OCC2CC2)c2ccccc2)c1O', 'Zymoseptoria tritici', '> 80%'),
  ('COc1cc(C)ccc1[C@@H](Oc1ccccc1)[C@H](C)OC(=O)[C@H](C)NC(=O)c1nccc(OC)c1O', 'Zymoseptoria tritici', '> 80%');
